Tested on: NCI-H23
experiment: NCI tumour cell line growth inhibition, 48 h
Calls of active or inactive are those of the source. No stated cut-off is given here; in the data, active = GI50 up to about 1.1 µM and inactive = higher.
endpoint label: GI50

Solved entries:
>  <molecule>
S=C1Cc2c([nH]c3ccccc23)-c2ccccc2N1

>  <GI50>
79.1 µM (inactive)

$$$$
>  <molecule>
COC(=O)C1Cc2cc3c(cc2C1=O)CCCC3 (centres undefined)

>  <GI50>
43.2 µM (inactive)

$$$$
>  <molecule>
COc1ccc2c(c1)c(=O)c1c(NCCCN(C)C)ccc3ncn2c31

>  <GI50>
5.87 µM (inactive)

$$$$
>  <molecule>
COc1c(O)ccc(C2=Cc3ccc(O)cc3OC2)c1OC

>  <GI50>
22.3 µM (inactive)

$$$$

Now for the molecule whose GI50 we want.
Entry Cc1ccc(Nc2nc3c(=O)n(C)c(=O)n(C)c3nc2Nc2ccc(C)cc2)cc1 ; GI50 = 15.9 µM (inactive)

====

Test system: DU-145
experiment: NCI tumour cell line growth inhibition, 48 h
Active and inactive are the calls of the source. Cut-off read from the data, not from the text of the source: active = GI50 up to about 1.1 µM and inactive = higher.
Your response should consist of one outcome taken from active, inactive

Worked cases, answers included:
>  <compound>
O=C1CSC2=NC3=C(COC/C3=C\c3ccc(Br)cc3)C(c3ccc(Br)cc3)N12 (stereo not given)

>  <experimental system>
DU-145

>  <label value>
inactive

$$$$
>  <compound>
Cc1[nH]c(=O)[nH]c(=O)c1C(=O)N(CCO)Cc1ccccc1

>  <experimental system>
DU-145

>  <label value>
inactive

$$$$
>  <compound>
O=C1/C(=C/c2ccc(O)c([N+](=O)[O-])c2)CCC/C1=C\c1ccc(O)c([N+](=O)[O-])c1

>  <experimental system>
DU-145

>  <label value>
inactive

$$$$

Ask: Which outcome was entered for the compound CC1=CC(=O)/C(=C/NC(=S)c2ccccc2)C(=O)O1 in this test?
Reply: inactive

Ask: Which outcome was entered for the compound Cn1c2ccccc2c(=O)c2cccc(C(=O)NC(CCCNC(=N)N)C(=O)O)c21 (stereo not given) in this test?
Reply: inactive

Ask: Which outcome was entered for the compound O=P(O)(CN1CCN(CP(=O)(O)c2ccccc2)CCN(CP(=O)(O)c2ccccc2)CC1)c1ccccc1 in this test?
Reply: inactive

Ask: Which outcome was entered for the compound COC(=O)C1=C(C)NC(C)=C(C(=O)OC)C1c1ccc(N=O)cc1 in this test?
Reply: inactive

====

System: RPMI-8226
experiment: NCI tumour cell line growth inhibition, 48 h
Calls of active or inactive are those of the source. No stated cut-off is given here; in the data, active = GI50 up to about 1.1 µM and inactive = higher. Non-standard residues stand in square brackets, D forms with d. Residues, ends and D or L forms follow the SMILES beside them. ξ: configuration not given here. *: point of attachment. ξHyp = O=C(O)C1CC(O)CN1; Cbz = O=C(OCc1ccccc1)*
Your response should consist of one outcome taken from yes (1) (active), no (0) (inactive)

Worked cases, answers included:
>  <compound>
Cc1ccc(NC(=O)CSc2nc(C)nc3c2sc(=S)n3-c2ccccc2)cc1

>  <label value>
no (0)

$$$$
>  <compound>
CC1=COC(C)(C=C(C#N)C#N)CC1 (stereo not drawn)

>  <label value>
no (0)

$$$$
>  <compound>
Cc1ccc(S(=O)(=O)N2CCCCN(S(=O)(=O)c3ccc(C)cc3)Cc3ccccc3OCCOCCOc3c4cccc3Cc3cccc5c3OCCOCCOc3ccccc3CN(S(=O)(=O)c3ccc(C)cc3)CCCN(S(=O)(=O)c3ccc(C)cc3)Cc3ccccc3OCCOCCOc3c(cccc3C4)Cc3cccc(c3OCCOCCOc3ccccc3C2)C5)cc1

>  <label value>
no (0)

$$$$
>  <compound>
COc1cccc(N2C(=O)C3c4[nH]c5ccc(C)cc5c4C4CCC(C(C)(C)C)CC4C3C2=O)c1 (stereo not drawn)

>  <label value>
no (0)

$$$$
>  <compound>
O=C(O)c1ccc(NC(c2ccccc2)c2ccc3cccnc3c2O)cc1 (stereo not drawn)

>  <label value>
no (0)

$$$$
>  <compound>
Cc1cc(N(CCOS(C)(=O)=O)CCOS(C)(=O)=O)ccc1/C=N/c1ccc(-c2nc(Cc3ccccc3)sc2C)cc1

>  <label value>
no (0)

$$$$

Ask: Which outcome was entered for the compound CC1(C)NC2C(=O)c3c([nH]c4ccccc34)[C@]3(C)CCC1CC23 (stereo partly drawn) in this test?
Reply: no (0)

Ask: Which outcome was entered for the compound NC(=O)CNC(=O)C1CC(O)CN1C(=O)OCc1ccccc1 (stereo not drawn) (Cbz-[ξHyp]-Gly-NH2) in this test?
Reply: no (0)

Ask: Which outcome was entered for the compound Cc1cn(C2CC3C(COCN3O)O2)c(=O)[nH]c1=O (stereo not drawn) in this test?
Reply: no (0)

Ask: Which outcome was entered for the compound CC(C)C1CC[C@H](C)C[C@@H]1OC(=O)C(C(=O)O[C@H]1C[C@@H](C)CCC1C(C)C)C(O)[C@@H]1OC(C)(C)O[C@H]1C1COC(C)(C)O1 (stereo partly drawn) in this test?
Reply: no (0)

Ask: Which outcome was entered for the compound COC1C(O)CC(OC2CC(Oc3cc4cc5c(c(O)c4c(O)c3C)C(=O)[C@@H](OC3CC(OC4CC(OC6CC(C)(O)C(OC(C)=O)C(C)O6)C(O)C(C)O4)C(O)C(C)O3)[C@H]([C@H](OC)C(=O)[C@@H](O)[C@@H](C)O)C5)OC(C)C2OC(C)=O)OC1C (stereo partly drawn) [CHROMOMYCIN] in this test?
Reply: yes (1)

Ask: Which outcome was entered for the compound CC(=O)CCCCn1c(=O)c2c(nc(Br)n2C)n(C)c1=O in this test?
Reply: no (0)

Ask: Which outcome was entered for the compound NC(=S)N/N=C(/CC(=O)c1ccc([N+](=O)[O-])cc1)C(=O)Nc1ncc([N+](=O)[O-])s1 in this test?
Reply: no (0)

Ask: Which outcome was entered for the compound COc1cc(S(=O)(=O)Nc2ccc(-c3csc(N)n3)cc2)ccc1Cl in this test?
Reply: no (0)

Ask: Which outcome was entered for the compound Nc1ccc(COC(O)CN2CCCCC2)cc1[N+](=O)[O-] (stereo not drawn) in this test?
Reply: no (0)

Ask: Which outcome was entered for the compound Cn1c2ccc3cc2c(=S)c2cc(ccc21)OCCOCCOCCOCCOCCOCCO3 in this test?
Reply: no (0)

Ask: Which outcome was entered for the compound O=C1C(Cl)C(c2cccc(Cl)c2)N1c1ccc(-n2c(S)nc3ccccc3c2=O)cc1 (stereo not drawn) in this test?
Reply: no (0)

Ask: Which outcome was entered for the compound CC(C(=O)Oc1ccc2ccccc2c1-c1c(O)ccc2ccccc12)c1ccccc1 (stereo not drawn) in this test?
Reply: no (0)

Ask: Which outcome was entered for the compound COc1ccc2cc(CNCCCCCCCCNCc3ccc4cc(OC)ccc4c3)ccc2c1 in this test?
Reply: no (0)

Ask: Which outcome was entered for the compound C=C1CC2CC(=O)C(O)C(C1)C2 (stereo not drawn) in this test?
Reply: no (0)

Ask: Which outcome was entered for the compound Brc1ccc(-c2[nH]c3ccccc3c2/C=N\Nc2ccc(-c3nc4ccccc4[nH]3)cc2)cc1 in this test?
Reply: yes (1)

Ask: Which outcome was entered for the compound CC(=O)Nc1oc(C)nc1C#N in this test?
Reply: no (0)

Ask: Which outcome was entered for the compound O=C(NC1=C(Cl)C(=O)c2ccccc2C1=O)C(=O)C(C(=O)c1ccc2ccccc2c1)C1OC(=O)c2ccccc21 (stereo not drawn) in this test?
Reply: no (0)

Ask: Which outcome was entered for the compound Cc1nc(Cl)nc(Cl)c1C in this test?
Reply: no (0)

====

System: Malme-3M
experiment: NCI tumour cell line growth inhibition, 48 h
Active and inactive are the calls of the source. No stated cut-off is given here; in the data, active = GI50 up to about 1.1 µM and inactive = higher.
Measured GI50 of individual entries

Solved entries:
>  <compound>
Cn1nc2ccc([N+](=O)[O-])c(Cn3nnc4ccccc43)c2n1

>  <experimental system>
Malme-3M

>  <GI50>
> 100 µM (inactive)

$$$$
>  <compound>
N#CC1=C(Nc2ccccc2)SC=C(c2ccccc2)N=C1NCc1ccccc1

>  <experimental system>
Malme-3M

>  <GI50>
> 100 µM (inactive)

$$$$
>  <compound>
CCCCCCCCCCCC[C@@H](O)[C@H]1CCC([C@H](O)CCCCC(=O)CCCCCCCC2=C[C@H](C)OC2=O)O1 (stereo not given in full)

>  <experimental system>
Malme-3M

>  <GI50>
> 50 µM (inactive)

$$$$
>  <compound>
CCn1c(=O)c2c(=O)[nH][nH]c2c2ccccc21

>  <experimental system>
Malme-3M

>  <GI50>
> 100 µM (inactive)

$$$$

Now for the compound whose GI50 we want.
For O=C(O)Cc1cc(=O)[nH]c2c1C(=O)CCC2 on Malme-3M, measured GI50 was > 100 µM (inactive)

====

Tested on: HOP-62
experiment: NCI tumour cell line growth inhibition, 48 h
The source made the active and inactive calls. Cut-off read from the data, not from the text of the source: active = GI50 up to about 1.1 µM and inactive = higher.
Your response should consist of one outcome taken from active, inactive

>  <molecule>
COc1ccc(C(=O)Nc2ccn(CCOC(=O)c3ccc(OC)cc3)c(=O)n2)cc1

>  <label value>
inactive

$$$$

With those in mind, consider the next molecule.
Ask: Which outcome was entered for the molecule COc1ccc(C2NCCc3c2[nH]c2ccccc32)cc1 (stereo not given) in this test?
Reply: inactive
